This collection of values is drawn from patent US9980943B2.

tested on: β-galactosidase in CMV-LacZ C2C12 myotubes; assay: CMV-LacZ secondary screen in C2C12 myotubes (β-Gal stabilizing assay); type: cell-based, mouse; settings: 5 uM; C2C12 CMV-LacZ myotubes; fold relative to DMSO
Kindly supply the reported CMV-LACZ in Myotubes, signal relative to DMSO values for the records listed here.
Form: value (number only, do not type unit).

Short answer please: CMV-LACZ in Myotubes, signal relative to DMSO, β-galactosidase in CMV-LacZ C2C12 myotubes, entry COC(=O)C1=NNC2(C)C(=O)N(c3ccc(C)cc3)C(=O)C12 (centres unmarked)
1.024

What do we get for COc1ccc(NC(=O)C2(N(C(=O)Cn3nnnc3N)c3ccc(OC)cc3)CCCCC2)cc1 ?
1.1318

What do we get for CC(NC(=O)c1ccc(C(C)(C)C)cc1)C(c1cccs1)N1CCOCC1 (centres unmarked) ?
0.8948

What do we get for Cc1ccccc1C(=O)Nc1scc(-c2ccc(Br)cc2)c1C(=O)O ?
0.9091

What do we get for COc1ccc(C(=O)Cn2nnc(-c3ccccc3NC(=O)c3ccco3)n2)cc1 ?
1.3265

What do we get for CC(C)(C)c1csc(NC(=O)c2cccnc2)n1 ?
0.9500

What do we get for O=C(c1ccccc1)N1CCN(S(=O)(=O)c2cccs2)CC1 ?
1.1552

What do we get for CC(C)Oc1cccc(C(=O)Nc2ccc(CN3CCOCC3)cc2)c1 ?
0.9004

What do we get for Cn1c(-c2ccccc2)cc2ccccc21 ?
0.8364

What do we get for CC(C)CN(C(=O)c1cccc(Cl)c1)c1c(N)n(Cc2ccccc2)c(=O)[nH]c1=O ?
0.9788

What do we get for CC(=O)Nc1ccc(NC(=O)C/C(C)=N/NC(=O)COc2cc(C)c(Br)cc2Br)cc1 ?
0.9602

What do we get for CCCC(=O)OCC(=O)c1[nH]c(C)c(C(C)=O)c1C ?
1.0066

What do we get for Cc1cccc(C)c1NCC(=O)N1CCN(Cc2ccccc2)CC1.Cl ?
0.7944

What do we get for Cc1ccc(S(=O)(=O)NC(C)C(=O)NC(C)c2cccs2)cc1 (centres unmarked) ?
0.9954

What do we get for O=S(=O)(NC(=NC1CCCCC1)c1ccccc1F)c1ccccc1 ?
1.2332

What do we get for Cc1ccc(NS(=O)(=O)c2ccc(-c3ccc(=O)[nH]n3)o2)c(C)c1 ?
1.0648

What do we get for CCOC(=O)C1(Cc2cccc(Cl)c2)CCCN(C(=O)CCSC)C1 (centres unmarked) ?
1.0658

What do we get for Cn1c(=O)c2c(nc(Sc3ncnn3CC(=O)NC3CCCCC3)n2C)n(C)c1=O ?
0.9636

What do we get for CS(=O)(=O)c1ccc(Cl)c(NC(=O)CSc2nncn2-c2ccccc2)c1 ?
1.262

What do we get for O=C(O)C(Cc1ccc(O)cc1)N1C(=O)c2ccccc2C1=O (centres unmarked) ?
0.9589

What do we get for Cc1ccc(S(=O)(=O)N2CN(CC3CCCO3)c3nc4ccccc4nc32)c(C)c1 (centres unmarked) ?
1.247

What do we get for Cc1cccc2c(N=Nc3ccc(S(=O)(=O)Nc4ccc(Cl)cc4)cc3[N+](=O)[O-])c(O)[nH]c12 ?
1.0005

What do we get for CC1(C)CC(=O)C=C(Nc2ccc(C(=O)O)c(O)c2)C1 ?
1.092

What do we get for OC1(c2ccccc2)C/C(=N\n2cnnc2)C=C1c1ccccc1 (centres unmarked) ?
0.9175

What do we get for O=C(N/N=C/c1cn[nH]c1-c1ccc(F)cc1)c1ccncc1 ?
0.8364

What do we get for Cc1cc(C)nc(NC(=O)c2ccc(Cl)cc2Cl)n1 ?
0.9465

What do we get for Cc1nnc(SCC(=O)c2ccc(Br)cc2)s1 ?
1.0338

What do we get for Cc1cc(-c2ccccc2)n2nc(N)nc2n1 ?
0.7773

What do we get for Cc1ccc(-c2nc(C)sc2CC(=O)OCC(=O)Nc2c(F)cccc2F)cc1 ?
0.9569

What do we get for COc1cc([N+](=O)[O-])cc(/C=N/NC(=O)C(O)(c2ccccc2)c2ccccc2)c1O ?
0.7726

What do we get for COC(=O)c1ccccc1NC(=O)CSc1nc(O)c(-c2ccccc2)c(=O)[nH]1 ?
1.0177

What do we get for CCC(=O)c1ccc(OCC(O)CN2CC(C)OC(C)C2)cc1.O=C(O)C(=O)O (centres unmarked) ?
0.9033

What do we get for CCN(CC(=O)NCc1cccs1)C(=O)COc1ccc(C(N)=O)cc1 ?
0.8302

What do we get for CCCCNS(=O)(=O)c1ccc2nc(-c3cccnc3)cc(C(=O)NCCOC)c2c1 ?
0.9847

What do we get for O=Cc1cn(Cc2ccc(F)cc2Cl)c2ccccc12 ?
1.077

====

tested on: β-galactosidase in CMV-LacZ C2C12 myoblasts; experiment: CMV-LacZ secondary screen in C2C12 myoblasts (β-Gal stabilizing assay); format: cell-based, mouse; conditions: 0.5 uM; CMV-LacZ C2C12 myoblasts
The label is 1 for CMV-LACZ in Myoblasts (β-galactosidase activity relative to DMSO) below 1 and -1 for CMV-LACZ in Myoblasts (β-galactosidase activity relative to DMSO) equal to or exceeding 1.

Does the reported CMV-LACZ in Myoblasts (β-galactosidase activity relative to DMSO) of CCc1nc2ccccc2c(C(=O)NCc2ccccc2)c1C stay below 1?
-1

What do we get for CC(C)CN(C(=O)c1cccc(Cl)c1)c1c(N)n(Cc2ccccc2)c(=O)[nH]c1=O ?
-1

What do we get for Cn1c(O)c(C(C#N)=C2N=c3ccccc3=N2)c2ccccc21 ?
1

What do we get for O=c1[nH]c2ccccc2nc1-c1c[nH]c2ccccc12 ?
1

What do we get for Cc1ccc(C(=O)N2CCN(S(=O)(=O)N3CCOCC3)CC2)cc1 ?
-1

====

system: β-galactosidase in CMV-LacZ C2C12 myoblasts; assay: CMV-LacZ secondary screen in C2C12 myoblasts (β-Gal stabilizing assay); format: cell-based, mouse; conditions: 40 uM; CMV-LacZ C2C12 myoblasts
Cut-off 0.8 on CMV-LACZ in Myoblasts (β-galactosidase activity relative to DMSO), inclusive. At or above means Yes; below means No.

Does the molecule CCN(CC(=O)NCc1cccs1)C(=O)COc1ccc(C(N)=O)cc1 have recorded CMV-LACZ in Myoblasts (β-galactosidase activity relative to DMSO) that is 0.8 or more?
Yes

What do we get for CCC(=O)c1ccc(OCC(O)CN2CC(C)OC(C)C2)cc1.O=C(O)C(=O)O (stereo not drawn) ?
Yes

What do we get for CC1CC(C)(C)NC(=S)N1CC(=O)N(C)Cc1ccccc1 (stereo not drawn) ?
No

What do we get for CCOc1cc(C)c(S(=O)(=O)N2CCCCC2)cc1C ?
Yes

What do we get for Cc1noc(C)c1COc1ccc(C(=O)NCCc2ccccn2)cc1 ?
Yes

What do we get for Cc1[nH]c(=O)[nH]c(=O)c1S(=O)(=O)Nc1ccc(F)cc1Cl ?
Yes

What do we get for CCOn1c(=O)c(-c2ccccc2)[n+]([O-])c2ccccc21 ?
Yes

What do we get for CCN(CC)C(=O)c1sc2nc(-c3ccc(OC)cc3)cn2c1C ?
No

What do we get for CCCn1c(-c2cc(OC)c(OC)c(OC)c2)nc2c1c(=O)[nH]c(=O)n2Cc1ccccc1 ?
No

What do we get for COc1cc(/C=C/CN2CCN(Cc3ccc(C)o3)C(CCO)C2)ccc1O (stereo not drawn) ?
Yes

What do we get for O=c1[nH]c2ccccc2nc1-c1c[nH]c2ccccc12 ?
No

What do we get for CCNC(=O)C(=O)Nc1cc2c3c(c1)CCN3C(=O)CC2 ?
Yes

What do we get for Cc1ccc(N2C(=O)C3NN=C(C(=O)OCc4ccccc4)C3C2=O)cc1 (stereo not drawn) ?
Yes

What do we get for CCCC(=O)OCC(=O)c1[nH]c(C)c(C(C)=O)c1C ?
No

What do we get for CCOC(=O)c1sc(=N)n(-c2ccc(OC)cc2)c1C ?
No

What do we get for CCOC(=O)c1cc(C(=O)OCC)c(=O)[nH]c1SCc1ccccc1 ?
No

What do we get for Cc1cccc(Cn2cnc3c(nnn3Cc3ccc(Cl)cc3)c2=O)c1 ?
No

What do we get for Cn1ccc(C(=O)Nc2cccnc2Cl)n1 ?
Yes

What do we get for CC1(C)Cc2c(c(N3CCOCC3)nc3sc(C(=O)Nc4ccccc4)c(N)c23)CO1 ?
Yes

What do we get for O=C(N[C@@H](Cc1c[nH]c2ccccc12)C(=O)O)C1CCN(S(=O)(=O)c2cccs2)CC1 ?
Yes

What do we get for Cc1ccc(C(=O)N2CCN(S(=O)(=O)N3CCOCC3)CC2)cc1 ?
Yes

What do we get for Cc1ccsc1CN(C)CC(=O)Nc1ccc([N+](=O)[O-])cc1Cl ?
Yes

What do we get for COc1ccc(CCNC(=O)Cn2nnc(C(=O)Nc3ccc(Br)cc3)c2N)cc1OC ?
No

What do we get for CCc1ccc(S(=O)(=O)NCCOc2cccc3cccnc23)cc1 ?
No

What do we get for Fc1ccc(-c2ccnc3nc(N4CCN(c5ccccc5)CC4)nn23)cc1 ?
Yes

What do we get for Cc1ccc2c(c1)/C(=C/c1ccco1)C(=O)N2 ?
Yes

What do we get for COc1ccc(CN2CCNC(=O)C2CC(=O)NCCc2c[nH]c3ccccc23)c(OC)c1 (stereo not drawn) ?
Yes

What do we get for CCOc1ccccc1NC(=O)COC(=O)CNS(=O)(=O)c1ccc(C)cc1 ?
Yes

What do we get for CCOc1ccc2nc(Cl)sc2c1 ?
Yes

What do we get for CCn1c(=O)c2cc(C(=O)N(C)c3cc(C)ccc3OC)sc2c2ccccc21 ?
No
